biological target: HLA-A*24:03; experiment: IEDB peptide-MHC binding, purified MHC/competitive/fluorescence; filed as Kd, often an IC50 or EC50 that approximates it; bounds were set here for any values at or beyond the usual limits of such assays; details: source organism: Vibrio vulnificus
readout-kind: Kd

// output Kd; input DEWECTRDD ; system HLA-A*24:03
≥ 20 µM

====

biological target: HLA-B*15:17; assay: IEDB peptide-MHC binding, purified MHC/direct/fluorescence; filed as Kd, often an IC50 or EC50 that approximates it; bounds were set here for any values at or beyond the usual limits of such assays; conditions: source organism: Escherichia coli
readout-kind: pKd
FYI, pKd means -log10 of a concentration in mol per litre.

Look up pKd of RTAFLRFWL and report it.
8.82

====

molecular target: HLA-B*44:02; assay: IEDB peptide-MHC binding, purified MHC/competitive/fluorescence; filed as Kd, often an IC50 or EC50 that approximates it; bounds were set here for any values at or beyond the usual limits of such assays; details: source organism: Burkholderia mallei SAVP1
pKd: −log10 of the molar value.
readout-kind: pKd

Look up pKd of MVFGRFSFA and report it.
≤ 5.30

====

target: HLA-A*03:01; assay: IEDB peptide-MHC binding, purified MHC/direct/fluorescence; filed as Kd, often an IC50 or EC50 that approximates it; bounds were set here for any values at or beyond the usual limits of such assays; conditions: source organism: Vibrio cholerae O139
pKd: −log10 of the molar value.
readout-kind: pKd

Look up pKd of EKDSNHNVL and report it.
≤ 4.70

====

target: HLA-B*73:01; assay: IEDB peptide-MHC binding, purified MHC/direct/fluorescence; filed as Kd, often an IC50 or EC50 that approximates it; bounds were set here for any values at or beyond the usual limits of such assays; details: source organism: Influenza A virus (A/chicken/Hubei/wk/1997(H5N1))
pKd: −log10 of the molar value.
readout-kind: pKd

Look up pKd of MKWMMAMKY and report it.
≤ 4.70

====

Provide the recorded Kd for the entries that follow.
target: HLA-A*02:03; test: IEDB peptide-MHC binding, purified MHC/competitive/radioactivity; filed as Kd, often an IC50 or EC50 that approximates it; bounds were set here for any values at or beyond the usual limits of such assays; conditions: source organism: Dengue virus 3 Martinique/1243/1999
Quick note: give the figure in nM, leave out the unit.

Look up Kd of FLAHYIGTSL and report it.
3.3

Look up Kd of FLAHYIGTS and report it.
10.7

====

molecular target: HLA-B*08:01; experiment: IEDB peptide-MHC binding, purified MHC/direct/fluorescence; filed as Kd, often an IC50 or EC50 that approximates it; bounds were set here for any values at or beyond the usual limits of such assays; conditions: source organism: Vibrio vulnificus CMCP6
readout-kind: Kd

Look up Kd of VTFFCVMTY and report it.
≥ 20 µM

====

target: HLA-B*27:20; test: IEDB peptide-MHC binding, purified MHC/competitive/fluorescence; filed as Kd, often an IC50 or EC50 that approximates it; bounds were set here for any values at or beyond the usual limits of such assays; conditions: source organism: Cryptosporidium parvum Iowa II
readout-kind: Kd (µM)
Quick note: give the figure in µM, leave out the unit.

Look up Kd of RIYKRSLKL and report it.
0.0293

====

molecular target: HLA-A*11:01; test: IEDB peptide-MHC binding, purified MHC/competitive/fluorescence; bounds were set here for any values at or beyond the usual limits of such assays; settings: source organism: Sudan ebolavirus
readout-kind: IC50
Hey, just the number and the unit after it is fine.

Look up IC50 of RISDRATRK and report it.
651 nM

====

target: HLA-B*51:01; experiment: IEDB peptide-MHC binding, purified MHC/competitive/fluorescence; filed as Kd, often an IC50 or EC50 that approximates it; bounds were set here for any values at or beyond the usual limits of such assays; settings: source organism: Orthohantavirus sinnombreense
readout-kind: Kd

Look up Kd of RTLGVFRYK and report it.
≥ 20 µM

====

target: HLA-A*68:01; experiment: IEDB peptide-MHC binding, purified MHC/competitive/radioactivity; filed as Kd, often an IC50 or EC50 that approximates it; bounds were set here for any values at or beyond the usual limits of such assays; conditions: source organism: Mammarenavirus whitewaterense
pKd: −log10 of the molar value.
Provide the recorded pKd for the entries that follow.

// output pKd; input VCFWSTLFY ; system HLA-A*68:01
≤ 4.41

// output pKd; input PMPCMINDTH ; system HLA-A*68:01
≤ 4.15

====

target: HLA-A*02:12; experiment: IEDB peptide-MHC binding, purified MHC/direct/fluorescence; filed as Kd, often an IC50 or EC50 that approximates it; bounds were set here for any values at or beyond the usual limits of such assays; details: source organism: Pergamino virus
readout-kind: Kd

Look up Kd of SCINGQCPY and report it.
≥ 20 µM

====

target: HLA-A*30:01; assay: IEDB peptide-MHC binding, purified MHC/competitive/radioactivity; filed as Kd, often an IC50 or EC50 that approximates it; bounds were set here for any values at or beyond the usual limits of such assays; details: source organism: Vaccinia virus Copenhagen
readout-kind: Kd (nM)
Quick note: give the figure in nM, leave out the unit.

Look up Kd of TSRNNHLPA and report it.
15.2

====

molecular target: HLA-A*31:01; assay: IEDB peptide-MHC binding, purified MHC/competitive/radioactivity; filed as Kd, often an IC50 or EC50 that approximates it; bounds were set here for any values at or beyond the usual limits of such assays; conditions: source organism: Vaccinia virus WR
# note: boundary value 6 µM maps to label 0; Kd below it maps to label 1

Regarding NLLVQYGAK , kindly confirm whether its Kd is beneath 6 µM.
label 0

Regarding LTPIFSDLLK , kindly confirm whether its Kd is beneath 6 µM.
label 1

Regarding QLEDSEYLFR , kindly confirm whether its Kd is beneath 6 µM.
label 1

Regarding GAVVKSDNK , kindly confirm whether its Kd is beneath 6 µM.
label 0

Regarding FTFGDTALY , kindly confirm whether its Kd is beneath 6 µM.
label 0

Regarding IMNLEMIDER , kindly confirm whether its Kd is beneath 6 µM.
label 1

Regarding LLSCIRNASK , kindly confirm whether its Kd is beneath 6 µM.
label 1

Regarding SSVQLSNNK , kindly confirm whether its Kd is beneath 6 µM.
label 1

Regarding RLVEEFFNR , kindly confirm whether its Kd is beneath 6 µM.
label 1

Regarding DLLNVTYNIK , kindly confirm whether its Kd is beneath 6 µM.
label 0

Regarding TTDDLVKSY , kindly confirm whether its Kd is beneath 6 µM.
label 1

Regarding ELGELIGVNY , kindly confirm whether its Kd is beneath 6 µM.
label 0

Regarding RVYEALYYV , kindly confirm whether its Kd is beneath 6 µM.
label 1

Regarding LFYPSMFTLR , kindly confirm whether its Kd is beneath 6 µM.
label 1

Regarding LLPSTDVNK , kindly confirm whether its Kd is beneath 6 µM.
label 0

Regarding IITVGMLIY , kindly confirm whether its Kd is beneath 6 µM.
label 1

Regarding NISFKSINK , kindly confirm whether its Kd is beneath 6 µM.
label 0

Regarding KIAPGIADIR , kindly confirm whether its Kd is beneath 6 µM.
label 1

Regarding AFNDDGIYIR , kindly confirm whether its Kd is beneath 6 µM.
label 1

Regarding SMASLKSLY , kindly confirm whether its Kd is beneath 6 µM.
label 1

Regarding AMENLKAMLY , kindly confirm whether its Kd is beneath 6 µM.
label 0

Regarding YVTLNASQY , kindly confirm whether its Kd is beneath 6 µM.
label 0

Regarding GTGLWTHDK , kindly confirm whether its Kd is beneath 6 µM.
label 1

Regarding EFIRIIRPDY , kindly confirm whether its Kd is beneath 6 µM.
label 0

Regarding LLMHLVSLYK , kindly confirm whether its Kd is beneath 6 µM.
label 1

Regarding ISGIGTFLHY , kindly confirm whether its Kd is beneath 6 µM.
label 0

Regarding LFMEMFFDY , kindly confirm whether its Kd is beneath 6 µM.
label 0

Regarding RSKMLKRGSR , kindly confirm whether its Kd is beneath 6 µM.
label 1

Regarding IMFEQYFIY , kindly confirm whether its Kd is beneath 6 µM.
label 1

Regarding LFTSTNDKIK , kindly confirm whether its Kd is beneath 6 µM.
label 0

Regarding ESLLKETIQK , kindly confirm whether its Kd is beneath 6 µM.
label 0

Regarding EQNLTDTNFK , kindly confirm whether its Kd is beneath 6 µM.
label 0

Regarding KIEEIEKVEK , kindly confirm whether its Kd is beneath 6 µM.
label 0

Regarding LLACTDPSER , kindly confirm whether its Kd is beneath 6 µM.
label 1

Regarding AMSFDGFIR , kindly confirm whether its Kd is beneath 6 µM.
label 1

Regarding AQYKCVTIK , kindly confirm whether its Kd is beneath 6 µM.
label 1

Regarding NFLRSIAMLK , kindly confirm whether its Kd is beneath 6 µM.
label 1

Regarding IIGPMFSGK , kindly confirm whether its Kd is beneath 6 µM.
label 0

Regarding SVQLSNNKY , kindly confirm whether its Kd is beneath 6 µM.
label 0

Regarding KSSSIDVDK , kindly confirm whether its Kd is beneath 6 µM.
label 0

Regarding NSVANRSKQK , kindly confirm whether its Kd is beneath 6 µM.
label 0

Regarding MAVEVGSIR , kindly confirm whether its Kd is beneath 6 µM.
label 1

Regarding TLVVISVIFY , kindly confirm whether its Kd is beneath 6 µM.
label 0

Regarding GLKIEEIEK , kindly confirm whether its Kd is beneath 6 µM.
label 0
